Source: ChEMBL document CHEMBL4354866

Molecular target: Potassium channel subfamily K member 2 (Homo sapiens, UniProt O95069, I293A)
Sequence (O95069 whole entry I293A): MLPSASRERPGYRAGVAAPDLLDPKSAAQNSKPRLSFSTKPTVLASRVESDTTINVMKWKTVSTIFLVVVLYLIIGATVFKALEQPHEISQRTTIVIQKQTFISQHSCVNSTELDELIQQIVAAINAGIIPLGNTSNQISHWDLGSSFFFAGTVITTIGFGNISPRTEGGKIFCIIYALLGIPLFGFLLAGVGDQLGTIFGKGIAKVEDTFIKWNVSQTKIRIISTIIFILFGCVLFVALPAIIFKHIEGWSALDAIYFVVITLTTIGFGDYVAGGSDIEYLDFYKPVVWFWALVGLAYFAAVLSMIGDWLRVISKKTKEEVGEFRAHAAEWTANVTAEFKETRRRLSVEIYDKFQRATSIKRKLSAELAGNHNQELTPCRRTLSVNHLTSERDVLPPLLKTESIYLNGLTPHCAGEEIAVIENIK
Test: Activation of recombinant human TREK1 I293A mutant expressed in HEK293T cells assessed as increase in K+ current amplitude by whole cell voltage clamp electrophysiological analysis
observedProperty: EC50 (µM)
Give just the numeric value; µM need not be written.

Query string: Note down EC50 recorded for "Cc1ccc2nc(-c3ccc(NC(=O)[C@@H]4CC[C@H](C(=O)O)C4)cc3)sc2c1"
Result string: 7.98

----------
Molecular target: Potassium channel subfamily K member 2 (Homo sapiens, UniProt O95069, W290A)
Sequence (O95069 whole entry W290A): as the sequence (O95069 whole entry I293A) above, with W290A, A293I counted along it
Assay: Activation of recombinant human TREK1 W290A mutant expressed in HEK293T cells assessed as increase in K+ current amplitude by whole cell voltage clamp electrophysiological analysis
observedProperty: pEC50
Friendly reminder that pEC50 comes from taking -log10 of the concentration in mol/L.

Query string: Provide pEC50 value for the following molecule: "Cc1ccc2nc(-c3ccc(NC(=O)[C@@H]4CC[C@H](C(=O)O)C4)cc3)sc2c1"
Result string: 5.41
